B1: F1*; the commonest letter at each place (parent)
chain: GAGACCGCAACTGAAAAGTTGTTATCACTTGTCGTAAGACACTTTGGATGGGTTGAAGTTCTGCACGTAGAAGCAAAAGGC

Variants of: B1
Assay: fraction ligated after 30 min (ligated reads / total reads); higher = more ligase activity
Conditions: with F1*sub RNA substrate (template-directed ligation), 42 °C
Endpoint Name: fraction ligated
Reply briefly: the number, and no unit.

Solved entries:
GAGACCGCAACTGAAAAGTTGTTATCCCTTGTCGTAAGACACTTTGGACGGGTTGAAGTTCTGCACGTAGAAGCAAAAGGC [A27C T49C] | 0.519
GAGACCGCAACTGAAAAGTTGTGATCACTTGTCGTAAGTCACTTTGGATGGGTTGAAGTTCTGCACGTAGAAGCAAAAGGC [T23G A39T] | 0.79
GAGACCGCAACTGAAAAGTTGTTATCACGTGTCGTAAGGCACTTTGGATGGGTTGAAGTTCTGCACGTAGAAGCAAAAGGC [T29G A39G] | 0.819
GAGACCGCAACTGAAAAGTTGTTATCACTTGTCGCAAGACATTTTGGATGGGTTGAAGTTCTGCACGTAGAAGCAAAAGGC [T35C C42T] | 0.856
GAGACCGCAACTGAAAAGTTGTTAACACTTGTCGTAACACACTTTGGATGGGTTGAAGTTCTGCACGTAGAAGCAAAAGGC [T25A G38C] | 0.0835
GAGACCGCAACTGAAAAGTTGTTATCACTCGTCGTAAGAGACTTTGGATGGGTTGAAGTTCTGCACGTAGAAGCAAAAGGC [T30C C40G] | 0.828

Asked: Please report fraction ligated for the following variant: GAGACCGCAACTGAAAAGTTGTTATCACTTGTCGTAAGACACTTTGGTTCGGTTGAAGTTCTGCACGTAGAAGCAAAAGGC [A48T G50C]
Given back: 0.0873

Asked: Please report fraction ligated for the following variant: GAGACCGCAACTGAAAAGTTGTTATCACATGTCGTTAGACACTTTGGATGGGTTGAAGTTCTGCACGTAGAAGCAAAAGGC [T29A A36T]
Given back: 0.847

Asked: Please report fraction ligated for the following variant: GAGACCGCAACTGAAAAGTTGTTATCACTTGTGGTAAGACACTTTGGAGGGGTTGAAGTTCTGCACGTAGAAGCAAAAGGC [C33G T49G]
Given back: 0.706
